Data origin: patent US20030148958A1

- assay-system: T1, corticotropin releasing factor 2 receptor; further: reference of the scale not given here
- T1 sequence (Q13324 whole entry, species assumed, looked up): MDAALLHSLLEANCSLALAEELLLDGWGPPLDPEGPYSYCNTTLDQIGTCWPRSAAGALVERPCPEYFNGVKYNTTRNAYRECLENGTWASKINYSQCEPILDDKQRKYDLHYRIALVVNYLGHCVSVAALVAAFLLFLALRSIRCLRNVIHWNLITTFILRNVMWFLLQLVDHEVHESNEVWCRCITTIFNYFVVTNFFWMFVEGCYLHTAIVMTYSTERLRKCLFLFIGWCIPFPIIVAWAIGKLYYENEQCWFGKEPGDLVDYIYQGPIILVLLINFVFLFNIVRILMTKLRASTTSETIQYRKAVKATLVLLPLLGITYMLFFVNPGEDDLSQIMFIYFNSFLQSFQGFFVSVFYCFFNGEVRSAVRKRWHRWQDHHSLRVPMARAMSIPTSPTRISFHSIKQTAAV
- method: cell-based or functional assay
Ends that are not written are not given here.
# reported CRF2R Emax; entries follow
Answer format: value, then unit.

| binder | CRF2R Emax |
| --- | --- |
| IVLSLEVPIGLLQILLEQARARAAREQATTNARILARV-NH2 [SEQ ID NO 120] | 100% |
| IVLSLDVPIGLLQILLEQEKQEKEKQQATTNARILARV-NH2 [SEQ ID NO 167] | 100% |
| ZGPPISIDLPWHLLRKMIEIEKQEKEKQQAANNRLLLDTI (C-terminal amide) [SEQ ID NO 209] | 93% |
| ZGPPISIDLSLELLRKMIEIEKQEKEKQQATTNARILARV (C-terminal amide) [SEQ ID NO 142] | 77% |
| ZGPPISIDLPIILLRKMIEIEKQEKEKQQAANNRLLLDTI (C-terminal amide) [SEQ ID NO 36] | 73% |

Complete the entry with CRF2R Emax for IVLSLDVPIGLLQILLEQRARAAREQATTNARILARV-NH2 [SEQ ID NO 137]
100%

For the binder SQEPPISLDLPFQLLREVLEMTKADQLAQQAHSNRKLLDIA-NH2 [SEQ ID NO 91] , give its reported CRF2R Emax.
7.1%

Please report CRF2R Emax for the following binder: ZGPPISIDLPWFLLRKMIEIEKQEKEKQQAANNRLLLDTI (C-terminal amide) [SEQ ID NO 187]
100%

Give me measured CRF2R Emax, please, for this binder: ZGPPISIDLPTDLLRKMIEIEKQEKEKQQAANNRLLLDTI (C-terminal amide) [SEQ ID NO 49]
37%

Note down CRF2R Emax recorded for IVLSLDVPIGLLQILLEQERAEAAREQATTNARILARV-NH2 [SEQ ID NO 113]
98%

Provide one value: measured CRF2R Emax of IVLSLDVPIGLLQILLEQARQRAAREQATTNARILARV-NH2 [SEQ ID NO 114]
100%

Fill in CRF2R Emax for record ZGPPISIDLPFYLLRKMIEIEKQEKEKQQAANNRLLLDTI (C-terminal amide) [SEQ ID NO 85]
100%

Give the reported value of CRF2R Emax for this record: ZGPPISIDLPQVLLRKMIEIEKQEKEKQQAANNRLLLDTI (C-terminal amide) [SEQ ID NO 197]
94%
